system.tested: ER (Homo sapiens, UniProt P03372)
Construct: host or cells: T47D and MCF7 human breast cancer cells
protocol.text: ER degradation activity, in-cell western blot analysis in T47D cells
Type: cell-based
protocol.conditions: compounds 16 hours, Table A does not say whether T47D or MCF7, read-out: Potency (DC50)
Experimental: ER degradation activity was evaluated in the human breast cancer cell line T47D and MCF7 purchased from the American Type Culture Collection (ATCC), Manassas, VA, and maintained and cultured in Dulbecco's Modified Eagle's medium (DMEM) containing 10% fetal bovine serum, 1 unit/ml of penicillin and 1 μg/ml of streptomycin. […]
measurement.name: DC50

{"molecule": "C[C@@H]1Cc2c([nH]c3ccccc23)[C@@H](c2ncc(C3CCC(C(=O)N4CCC(N5Cc6cc7c(cc6C5)C(=O)N(C5CCC(=O)NC5=O)C7=O)CC4)CC3)cc2F)N1CC(F)F (stereo partly shown) [E 406]", "system.tested": "ER (Homo sapiens, UniProt P03372)", "result": "> 100 nM"}
{"molecule": "C[C@@H]1Cc2c([nH]c3ccccc23)[C@@H](c2cnc(N3CC4(CCC(CN5Cc6cc7c(cc6C5)C(=O)N(C5CCC(=O)NC5=O)C7=O)CC4)C3)nc2)N1CC(F)(F)CO (stereo partly shown) [E 513]", "system.tested": "ER (Homo sapiens, UniProt P03372)", "result": "10 to 100 nM"}
{"molecule": "C[C@@H]1Cc2cc(O)ccc2[C@@H](c2c(F)cc(N(C)C3CC4(CCN(C(=O)CN5Cc6cc7c(cc6C5)C(=O)N(C5CCC(=O)NC5=O)C7=O)CC4)C3)cc2F)N1CC(F)F (stereo partly shown) [E 452]", "system.tested": "ER (Homo sapiens, UniProt P03372)", "result": "10 to 100 nM"}
{"molecule": "O=C1CCC(N2Cc3cc4c(cc3C2=O)CN(C(=O)[C@H]2CC[C@H](CN3CC(Oc5ccc([C@@H]6c7ccc(O)cc7CC[C@@H]6c6ccccc6)cc5)C3)CC2)C4)C(=O)N1 (mixture of isomers) [E 491]", "system.tested": "ER (Homo sapiens, UniProt P03372)", "result": "10 to 100 nM"}
{"molecule": "CC1(C(=O)N2CCC(N3Cc4cc5c(cc4C3)C(=O)N(C3CCC(=O)NC3=O)C5=O)CC2)CCN(c2ccc([C@@H]3c4ccc(O)cc4CC[C@@H]3c3ccccc3)cc2)CC1 (mixture of isomers) [E 488]", "system.tested": "ER (Homo sapiens, UniProt P03372)", "result": "> 100 nM"}
{"molecule": "C[C@@H]1Cc2cc(O)ccc2[C@H](c2ccc(C(=O)N3CC4(CCN(C(=O)CN5Cc6cc7c(cc6C5)C(=O)N(C5CCC(=O)NC5=O)C7=O)CC4)C3)cc2)N1CC(F)F (stereo partly shown) [E 460]", "system.tested": "ER (Homo sapiens, UniProt P03372)", "result": "10 to 100 nM"}
{"molecule": "C[C@@H]1Cc2cc(O)ccc2[C@@H](c2c(F)cc(N3CCC(C(=O)N4CCC(N5Cc6cc7c(cc6C5)C(=O)N(C5CCC(=O)NC5=O)C7=O)CC4)CC3)cc2F)N1CC(F)F (stereo partly shown) [E 463]", "system.tested": "ER (Homo sapiens, UniProt P03372)", "result": "< 10 nM"}
{"molecule": "O=C1CCC(N2Cc3cc4c(cc3C2=O)CN(C2CCN(CC3CCN(c5ccc([C@@H]6c7ccc(O)cc7CC[C@@H]6c6ccccc6)cc5)CC3)CC2)C4=O)C(=O)N1 (stereo partly shown) [E 506]", "system.tested": "ER (Homo sapiens, UniProt P03372)", "result": "> 100 nM"}
{"molecule": "C[C@@H]1Cc2cc(O)ccc2[C@@H](c2c(F)cc(C3CCC4(CC3)CCN(C(=O)CN3Cc5cc6c(cc5C3)C(=O)N(C3CCC(=O)NC3=O)C6=O)CC4)cc2F)N1CC(F)F (stereo partly shown) [E 447]", "system.tested": "ER (Homo sapiens, UniProt P03372)", "result": "> 100 nM"}
{"molecule": "O=C1CCC(N2C(=O)c3cc4c(cc3C2=O)CN(CC2CCC3(CC2)CN(C(=O)c2ccc([C@@H]5c6ccc(O)cc6CC[C@@H]5c5ccccc5)cc2)C3)C4)C(=O)N1 (stereo partly shown) [E 493]", "system.tested": "ER (Homo sapiens, UniProt P03372)", "result": "> 100 nM"}
